All figures here come from patent US20100065444A1.

- TEST SUMMARY: Stability of multivitamin soft capsules in PVC/PVDC-aluminium blister, 40° C./75% RH
- Type: physicochemical
- CONDITION PARAMETERS: Multivitamin soft capsule batch 9018401, 3 months
PROPERTY MEASURED: amount of active compound present (mg/capsule)
Give bare numbers, in mg/capsule.

Illustrative cases are given below, each with its answer.
compound=O=C1O[C@H]([C@@H](O)CO)C(O)=C1O property_measured="amount of active compound present" obs_value=159
compound=Nc1nc2ncc(CNc3ccc(C(=O)N[C@@H](CCC(=O)O)C(=O)O)cc3)nc2c(=O)[nH]1 property_measured="amount of active compound present" obs_value=0.57
compound=CC(C)(CO)[C@@H](O)C(=O)NCCCO property_measured="amount of active compound present" obs_value=9.7

Item: Cc1ncc(C[n+]2csc(CCO)c2C)c(N)n1.Cl.[Cl-] [Thiamine*HCL] | amount of active compound present: 17.1

###

- TEST SUMMARY: Stability of multivitamin soft capsules in container with channel former and absorbent embedded in the inside walls, 40° C./75% RH
- Assay type: physicochemical
- CONDITION PARAMETERS: Multivitamin soft capsule batch 9018802, Start
PROPERTY MEASURED: amount of active compound present
Answer format: number, then unit.

molecule=CC(C)(CO)[C@@H](O)C(=O)NCCCO obs_value="13.3 mg/capsule"
molecule=O=C1O[C@H]([C@@H](O)CO)C(O)=C1O obs_value="213 mg/capsule"

For every item in the list below, what is its measured amount of active compound present?
1. Nc1nc2ncc(CNc3ccc(C(=O)N[C@@H](CCC(=O)O)C(=O)O)cc3)nc2c(=O)[nH]1
2. Cc1ncc(C[n+]2csc(CCO)c2C)c(N)n1.Cl.[Cl-] [Thiamine*HCL]

-- reply
1: 0.60 mg/capsule; 2: 19.6 mg/capsule

###

- TEST SUMMARY: Stability of multivitamin soft capsules in container with channel former and absorbent embedded in the inside walls, 40° C./75% RH
- Type: physicochemical
- CONDITION PARAMETERS: Multivitamin soft capsule batch 9018802, 6 months
PROPERTY MEASURED: amount of active compound present (mg/capsule)
Answers are plain numbers, in mg/capsule.

Illustrative cases are given below, each with its answer.
molecule=O=C1O[C@H]([C@@H](O)CO)C(O)=C1O property_measured="amount of active compound present" obs_value=210
molecule="Cc1ncc(C[n+]2csc(CCO)c2C)c(N)n1.Cl.[Cl-] [Thiamine*HCL]" property_measured="amount of active compound present" obs_value=19.3
molecule=CC(C)(CO)[C@@H](O)C(=O)NCCCO property_measured="amount of active compound present" obs_value=12.8

Alright, here's another molecule for you.
Item: "Nc1nc2ncc(CNc3ccc(C(=O)N[C@@H](CCC(=O)O)C(=O)O)cc3)nc2c(=O)[nH]1" | amount of active compound present: 0.520

###

- TEST SUMMARY: Stability of multivitamin soft capsules in container with channel former and absorbent embedded in the inside walls, 30° C./65% RH
- Type: physicochemical
- CONDITION PARAMETERS: Multivitamin soft capsule batch GD 06 0045, 6 months
PROPERTY MEASURED: amount of active compound present (mg/capsule)
Give bare numbers, in mg/capsule.

Illustrative cases are given below, each with its answer.
compound="CC1=C(/C=C/C(C)=C/C=C/C(C)=C/C=C/C=C(C)/C=C/C=C(C)/C=C/C2=C(C)CCCC2(C)C)C(C)(C)CCC1 [β-Carotene]" obs_value=2.0
compound="CC(C)(CO)[C@@H](O)C(=O)NCCC(=O)[O-].CC(C)(CO)[C@@H](O)C(=O)NCCC(=O)[O-].[Ca+2] [Calcium panthotenate]" obs_value=14.9
compound="O=C(O)CCCC[C@@H]1SC[C@@H]2NC(=O)N[C@@H]21 [Biotin]" obs_value=0.185
compound="Cc1cc2nc3c(=O)[nH]c(=O)nc-3n(C[C@H](O)[C@H](O)[C@H](O)CO)c2cc1C [Riboflavin]" obs_value=2.23
compound="CC(=O)Oc1c(C)c(C)c2c(c1C)CCC(C)(CCC[C@H](C)CCC[C@H](C)CCCC(C)C)O2 (stereo partly drawn) [Tocopherol acetate]" obs_value=19.8
compound="O=C1O[C@H]([C@@H](O)CO)C(O)=C1O [Ascorbic acid]" obs_value=115.0

For every item in the list below, what is its measured amount of active compound present?
1. NC(=O)c1cccnc1 [Nicotinamide]
2. Nc1nc2ncc(CNc3ccc(C(=O)N[C@@H](CCC(=O)O)C(=O)O)cc3)nc2c(=O)[nH]1 [Folic acid]
3. Cc1ncc(CO)c(CO)c1O.Cl [Pyridoxine*HCL]

-- reply
1. 20.1
2. 0.603
3. 3.39
